target: HCV NS3/4A protease complex (J4L6S strain) (Hepatitis C virus genotype 1b, UniProt O92972, C1454S/C1711G); construct: DNA encoding the recombinant HCV NS3/4A protease complex (amino acids 1027 to 1711) for these strains; inferred from pET21b vector and Ni-NTA purification; test: FRET peptide assay to monitor HCV NS3/4A proteolytic activity, J4L6S strain
Sequence (O92972 1027-1711 C1454S/C1711G, one chain of several): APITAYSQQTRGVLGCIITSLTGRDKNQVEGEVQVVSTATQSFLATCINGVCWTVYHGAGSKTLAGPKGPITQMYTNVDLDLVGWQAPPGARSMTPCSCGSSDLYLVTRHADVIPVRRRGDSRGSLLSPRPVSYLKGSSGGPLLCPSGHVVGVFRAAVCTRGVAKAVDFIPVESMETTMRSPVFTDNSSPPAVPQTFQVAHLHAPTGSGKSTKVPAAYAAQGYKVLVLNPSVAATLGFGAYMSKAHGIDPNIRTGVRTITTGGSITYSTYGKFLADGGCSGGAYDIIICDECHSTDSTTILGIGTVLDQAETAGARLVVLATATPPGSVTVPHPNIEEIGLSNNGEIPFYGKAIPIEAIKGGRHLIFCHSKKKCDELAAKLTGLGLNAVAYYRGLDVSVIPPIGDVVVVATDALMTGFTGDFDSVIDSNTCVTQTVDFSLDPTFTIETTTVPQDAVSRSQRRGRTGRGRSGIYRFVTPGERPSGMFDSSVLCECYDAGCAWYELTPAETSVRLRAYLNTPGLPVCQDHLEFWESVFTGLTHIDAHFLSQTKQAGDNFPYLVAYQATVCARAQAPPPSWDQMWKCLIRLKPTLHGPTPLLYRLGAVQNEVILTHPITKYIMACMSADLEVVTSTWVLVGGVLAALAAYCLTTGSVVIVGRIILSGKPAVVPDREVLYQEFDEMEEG
measured attribute: pIC50
Scale: pIC50 equals -log10([C]), with [C] in mol/L.

Item C=C[C@@H]1C[C@]1(NC(=O)[C@@H]1C[C@@H](OC(=O)N2Cc3cccc(F)c3C2)CN1C(=O)[C@@H](OC(=O)NC(C)(C)C)C(C)(C)C)C(=O)NS(=O)(=O)C1CC1 has what recorded pIC50?
8.01

====

target: HCV NS3/4A protease complex (BMS strain); construct: other: HCV NS3/4A enzyme assay; said of H77 and J4L6S; fused on or other part: Three-lysine solubilising tail at the NS4A C-terminus and a His tag from pET21b (Ni-NTA purification), for the H77 and J4L6S constructs; assay: FRET peptide assay to monitor HCV NS3/4A proteolytic activity, BMS strain; conditions: read-out: IC50 Range; HCV NS3/4A enzyme assay; Table 1
Measured IC50, listed per entry for reference.

{"compound": "C=C[C@@H]1C[C@]1(NC(=O)[C@@H]1C[C@@H](Oc2nccc3cc(OC)ccc23)CN1C(=O)[C@@H](OC(=O)NC(C)(C)C)C(C)(C)C)C(=O)NS(=O)(=O)N(C)C [Example 58Compound 58]", "IC50": "< 100 nM"}
{"compound": "C=C[C@@H]1C[C@]1(NC(=O)[C@@H]1C[C@@H](Oc2cc(-c3ccccc3)nc3cc(OC)ccc23)CN1C(=O)[C@@H](O)Cc1c[nH]cn1)C(=O)NS(=O)(=O)C1CC1 [Example 4,Compound 3]", "IC50": "100 to 1000 nM"}
{"compound": "C=C[C@@H]1C[C@]1(NC(=O)[C@@H]1C[C@@H](Oc2nccc3ccccc23)CN1C(=O)[C@@H](OC(=O)NCC)C(C)(C)C)C(=O)NS(=O)(=O)C1CC1 [Example 25]", "IC50": "100 to 1000 nM"}
{"compound": "C=C[C@@H]1C[C@]1(NC(=O)[C@@H]1C[C@@H](OC(=O)N2Cc3cccc(F)c3C2)CN1C(=O)[C@@H](OC(=O)NC(C)(C)C)C(C)(C)C)C(=O)NS(=O)(=O)C1CC1 [Example 56Compound 56]", "IC50": "< 100 nM"}

Item C=C[C@@H]1C[C@]1(NC(=O)[C@@H]1CC(Oc2nc(-c3ccc(OC(F)(F)F)cc3)cc3cc(OC)ccc23)CN1C(=O)[C@@H](O)C(C)(C)C)C(=O)NS(=O)(=O)C1CC1 (stereo partly drawn) [Example 20] has what recorded IC50?
< 100 nM

Same read-out for C=C[C@@H]1C[C@]1(NC(=O)[C@@H]1C[C@@H](Oc2nccc3ccccc23)CN1C(=O)[C@@H](OC(=O)Nc1ccccc1OC)C(C)(C)C)C(=O)NS(=O)(=O)C1CC1 [Example 29] ?
100 to 1000 nM

Same read-out for C=C[C@@H]1C[C@]1(NC(=O)[C@@H]1C[C@@H](Oc2cc(-c3ccccc3)nc3cc(OC)ccc23)CN1C(=O)[C@@H](OC(=O)NC(C)(C)C)C(C)(C)C)C(=O)NS(=O)(=O)C1CC1 [Example 5,Compound 1] ?
< 100 nM

Same read-out for C=C[C@@H]1C[C@]1(NC(=O)[C@@H]1C[C@@H](Oc2nc(-c3ccc(OC(F)(F)F)cc3)cc3cc(OC)ccc23)CN1C(=O)[C@@H](O)C(C)(C)COC)C(=O)NS(=O)(=O)C1CC1 [Example 63Compound 63] ?
< 100 nM

Same read-out for C=C[C@@H]1C[C@]1(NC(=O)[C@@H]1C[C@@H](Oc2nccc3ccccc23)CN1C(=O)[C@@H](OC(=O)NC1CCCC1)C(C)(C)C)C(=O)NS(=O)(=O)C1CC1 [Example 9] ?
100 to 1000 nM

====

Measured EC50, listed per entry for reference.
system: HCV replicon in HUH-7 cells; assay: HCV replicon FRET assay; assay type: cell-based, Hepatitis C virus (strain 1b); details: Hepatitis C virus, Huh-7, read-out: EC50 Range, HCV replicon cell assay; Table 1

Consider the reported EC50 for these molecules:
{"molecule": "C=C[C@@H]1C[C@]1(NC(=O)[C@@H]1C[C@@H](Oc2nccc3ccccc23)CN1C(=O)[C@@H](OC(=O)NC1CCCC1)C(C)(C)C)C(=O)NS(=O)(=O)C1CC1", "measured attribute": "EC50", "result": "0.5 to 5 µM"}
{"molecule": "C=C[C@@H]1C[C@]1(NC(=O)[C@@H]1C[C@@H](Oc2cc(-c3ccccc3)nc3cc(OC)ccc23)CN1C(=O)[C@@H](O)C1CCCCC1)C(=O)NS(=O)(=O)C1CC1", "measured attribute": "EC50", "result": "0.5 to 5 µM"}
{"molecule": "CCC1C[C@]1(NC(=O)[C@@H]1C[C@@H](Oc2cc(-c3ccccc3)nc3cc(OC)ccc23)CN1C(=O)C(O)C(C)C)C(=O)NS(=O)(=O)C1CC1 (stereo partly shown)", "measured attribute": "EC50", "result": "0.5 to 5 µM"}
{"molecule": "C=C[C@@H]1C[C@]1(NC(=O)[C@@H]1C[C@@H](Oc2nccc3ccccc23)CN1C(=O)[C@@H](OC(=O)NC(C)C)C(C)(C)C)C(=O)NS(=O)(=O)C1CC1", "measured attribute": "EC50", "result": "0.5 to 5 µM"}

Notebook entry, HCV replicon in HUH-7 cells assay: EC50 of C=C[C@@H]1C[C@]1(NC(=O)[C@@H]1C[C@@H](Oc2ncnc3ccccc23)CN1C(=O)[C@@H](OC(=O)NC(C)(C)C)C(C)(C)C)C(=O)NS(=O)(=O)C1CC1 = ?
0.5 to 5 µM

Same read-out for C=C[C@@H]1C[C@]1(NC(=O)[C@@H]1C[C@@H](Oc2nccc3ccccc23)CN1C(=O)[C@@H](OC(=O)Nc1ccc(C(C)(C)C)cc1)C(C)(C)C)C(=O)NS(=O)(=O)C1CC1 ?
0.5 to 5 µM

====

Molecular target: human neutrophil elastase (HNE) (Homo sapiens, UniProt P08246)
Sequence (P08246 30-267): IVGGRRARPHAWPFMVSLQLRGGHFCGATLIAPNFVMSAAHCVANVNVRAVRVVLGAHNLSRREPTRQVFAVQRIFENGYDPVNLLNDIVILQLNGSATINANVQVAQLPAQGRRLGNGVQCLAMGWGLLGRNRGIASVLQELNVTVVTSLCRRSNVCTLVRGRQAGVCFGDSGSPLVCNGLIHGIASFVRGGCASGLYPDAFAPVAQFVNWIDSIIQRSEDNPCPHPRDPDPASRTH
Test: Specificity assay, human neutrophil elastase
Conditions: read-out: HLE activity in the specificity assays (IC50)
pIC50: −log10 of the molar value.
measured attribute: pIC50

Item C=C[C@@H]1C[C@]1(NC(=O)[C@@H]1C[C@@H](OC(=O)N2Cc3cccc(F)c3C2)CN1C(=O)[C@@H](OC(=O)NC(C)(C)C)C(C)(C)C)C(=O)NS(=O)(=O)C1CC1 has what recorded pIC50?
< 4.00

====

tested on: HCV replicon in HUH-7 cells; assay: HCV replicon FRET assay; type: cell-based, Hepatitis C virus (strain 1b); conditions: Hepatitis C virus, Huh-7, read-out: EC50 Range, HCV replicon cell assay; Table 1
pEC50: −log10 of the molar value.
measured attribute: pEC50

{"compound": "C=C[C@@H]1C[C@]1(NC(=O)[C@@H]1C[C@@H](OC(=O)N2Cc3cccc(F)c3C2)CN1C(=O)[C@@H](OC(=O)NC(C)(C)C)C(C)(C)C)C(=O)NS(=O)(=O)C1CC1", "system under test": "HCV replicon in HUH-7 cells", "pEC50": "5.30 to 6.30"}

Item CCC1C[C@]1(NC(=O)[C@@H]1C[C@@H](Oc2cc(-c3ccccc3)nc3cc(OC)ccc23)CN1C(=O)[C@@H](O)C1CCCCC1)C(=O)NS(=O)(=O)C1CC1 (some centres unmarked) has what recorded pEC50?
5.30 to 6.30

Same read-out for C=C[C@@H]1C[C@]1(NC(=O)[C@@H]1C[C@@H](Oc2cc(-c3ccccc3)nc3cc(OC)ccc23)CN1C(=O)[C@@H](O)c1ccccc1)C(=O)NS(=O)(=O)C1CC1 ?
< 5.30

Same read-out for C=C[C@@H]1C[C@]1(NC(=O)[C@@H]1C[C@@H](Oc2cc(-c3ccccc3)nc3cc(OC)ccc23)CN1C(=O)[C@@H](O)C(C)C)C(=O)NS(=O)(=O)C1CC1 (stereo in doubt) ?
5.30 to 6.30

Same read-out for C=C[C@@H]1C[C@]1(NC(=O)[C@@H]1C[C@@H](Oc2nccc3ccccc23)CN1C(=O)[C@@H](OC(=O)Nc1ccc(F)cc1)C(C)(C)C)C(=O)NS(=O)(=O)C1CC1 ?
5.30 to 6.30
